The origin of these recorded values is patent US20220119440A1.

Assay: PAMPA (Parallel Artificial Membrane Permeability Assay)
Assay type: in vitro ADME
Conditions: peptide 20 μM in 5% DMSO/PBS, 1% lecithin in dodecane on PVDF, 25° C. for 18 hours, repeated three times, read-out: Pe
ASSAY_METRIC: Papp at 18 h, 20 μM (×10⁻⁶ cm/s)
Form entry: value (×10⁻⁶ cm/s) — number only.

Exam item: Name the reported Papp at 18 h, 20 μM value associated with the compound CC(=O)NC(C(=O)N[C@@H](Cc1ccccc1)C(=O)NCC(C)C)C(C(F)(F)F)C(F)(F)F (stereo partly drawn)
Marked response: 1.57

Exam item: Again, but for CC(=O)NC(C(=O)N[C@@H](C)C(=O)N(C)C)C(C(F)(F)F)C(F)(F)F (stereo partly drawn)
Marked response: 0.04

Exam item: Again, but for CC(=O)NC(C(=O)N[C@@H](Cc1ccccc1)C(=O)NCC(C)C)C(F)(F)F (stereo partly drawn)
Marked response: 0.19

* * *

Assay: PAMPA (Parallel Artificial Membrane Permeability Assay)
Assay type: in vitro ADME
ASSAY_METRIC: Papp at 18 h, 20 μM (×10⁻⁶ cm/s)
Form entry: value (×10⁻⁶ cm/s) — number only.

Exam item: Name the reported Papp at 18 h, 20 μM value associated with the molecule CC(=O)N[C@H](C(=O)N[C@@H](Cc1ccccc1)C(=O)NCC(C)C)C(C)C [Comparative Example 8, Ac-L-Val-L-Phe-iBu, reference compound]
Marked response: 0.07

* * *

Experiment: MDCK-II assay (cell monolayer assay)
Format: in vitro ADME
Details: dog, MDCK
Method: Further, with respect to the peptides synthesized in Examples 14, 15 and 17 and Comparative Examples 5,6 and 8, MDCK-II assay was conducted. […] MDCK-II cells were seeded on Cell Culture Inserts (Falcon) at 5.04×10^4 cells/mL, and 5 days after seeding, cell monolayer assay (MDCK-II assay) was conducted. […] The peptide concentration was analyzed by LC/MS. […] The permeability (Papp) was calculated in accordance with the following formula. […]
Peptide text beside a SMILES is read from it. * marks the point of attachment. NHBn = c1ccc(CN*)cc1
ASSAY_METRIC: Papp A→B at 2 h, 2 μM (×10⁻⁶ cm/s)
Form entry: value (×10⁻⁶ cm/s) — number only.

Exam item: Name the reported Papp A→B at 2 h, 2 μM value associated with the molecule CC(=O)N[C@H](C(=O)N[C@@H](Cc1ccccc1)C(=O)NCC(C)C)C(C)C [Comparative Example 8, Ac-L-Val-L-Phe-iBu, reference compound]
Marked response: 7.12

Exam item: Again, but for CC(=O)N[C@@H](C)C(=O)N[C@@H](C)C(=O)NCc1ccccc1 [Comparative Example 5, Ac-L-Ala-L-Ala-NHBn, reference compound] (Ac-Ala-Ala-NHBn)
Marked response: 1.23
